All figures here come from paper PMC7918612.

molecular target: UniProtKB O55239; assay: Fluorescence-based NNMT enzymatic assay (mouse enzyme); format: biochemical; settings: read-out: mNNMT IC50
Sequence (O55239 whole entry): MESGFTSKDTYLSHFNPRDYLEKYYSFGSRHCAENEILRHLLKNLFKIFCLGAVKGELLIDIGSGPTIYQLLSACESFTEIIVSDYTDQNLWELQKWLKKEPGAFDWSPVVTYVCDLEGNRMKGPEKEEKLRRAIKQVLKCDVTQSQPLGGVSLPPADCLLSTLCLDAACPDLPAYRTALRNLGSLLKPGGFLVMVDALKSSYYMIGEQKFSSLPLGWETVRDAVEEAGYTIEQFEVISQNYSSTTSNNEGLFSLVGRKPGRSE
In this section, each of the compounds is paired with its reported pIC50.
On this scale, pIC50 is minus log10 of a concentration expressed in M (mol/L).

Cc1nn(CC(C)(O)C(=O)N2CCN(c3cccc4[nH]c(=O)ccc34)CC2)cc1-c1cccc(F)c1 (stereo not drawn)    5.79
Cc1nn(CC(C)(O)C(=O)N2CCN(c3c(F)ccc4cnccc34)CC2)cc1-c1cccc(F)c1 (stereo not drawn)    5.73
Cc1nn(CC(C)(O)C(=O)N2CCN(c3cccc4cnccc34)CC2)cc1-c1ccccc1 (stereo not drawn)    6.08
Cc1nn(CC(C)(O)C(=O)N2CCN(c3c(C)sc4cnccc34)CC2)cc1-c1cccc(F)c1 (stereo not drawn)    5.46
CCn1c(=N)n2c3c(cccc31)CCC2    6.30

Query block: Requested read-out: pIC50. Entry: `N=c1sc2cccc3c2n1CCC3`
Result block: 5.64

Query block: Requested read-out: pIC50. Entry: Cc1nn(CC(C)(O)C(=O)N2CCN(c3cccc4cncnc34)CC2)cc1-c1cccc(F)c1 (stereo not drawn)
Result block: 5.79

Query block: Requested read-out: pIC50. Entry: Cc1nn(CC(C)(O)C(=O)N2CCN(c3cccc4c3ccc(=O)n4C)CC2)cc1-c1cccc(F)c1 (stereo not drawn)
Result block: 6.00
